System: MDR1
ASSAY NOTES: Bidirectional permeability/efflux in MDCK-MDR1 cells
Format: in vitro ADME, canine
PARTICULARS: dog
READOUT: Papp A→B (×10⁻⁶ cm/s)
Write it as a number; the unit ×10⁻⁶ cm/s goes unstated.

Record Cc1nc(C)c2c(n1)sc1c(NCc3ccc(C(C)(C)O)cc3)ncnc12 [Compound 1] : what is its Papp A→B with MDR1?
46.7

----------
TARGET OF ASSAY: Human M4 (Homo sapiens)
Construct: expressed in transfected cells
Sequence (P08173 1-479): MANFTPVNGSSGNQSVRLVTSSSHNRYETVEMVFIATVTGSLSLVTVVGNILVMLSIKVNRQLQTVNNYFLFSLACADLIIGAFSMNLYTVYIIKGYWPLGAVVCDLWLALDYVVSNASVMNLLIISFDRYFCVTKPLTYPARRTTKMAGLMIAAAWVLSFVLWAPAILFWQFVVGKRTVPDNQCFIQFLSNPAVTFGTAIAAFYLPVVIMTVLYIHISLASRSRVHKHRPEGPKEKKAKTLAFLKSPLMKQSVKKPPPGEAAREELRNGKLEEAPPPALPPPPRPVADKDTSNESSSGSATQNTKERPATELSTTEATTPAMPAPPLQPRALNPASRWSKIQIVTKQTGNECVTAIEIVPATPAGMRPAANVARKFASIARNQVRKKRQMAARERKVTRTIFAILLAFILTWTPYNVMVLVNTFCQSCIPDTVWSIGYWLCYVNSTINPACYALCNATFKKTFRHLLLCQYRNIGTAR
ASSAY NOTES: mAChR M4 cell-based functional assay (calcium flux, potentiation of EC20 acetylcholine response)
PARTICULARS: CHO-K1 cells with human M4 and Gqi5; increase in EC20 acetylcholine response
pEC50: −log10 of the molar value.
Rule: pEC50 of 6 or more gives Condition met; anything lower gives Condition not met.

Kindly determine if pEC50 recorded for `Cc1nc(C)c2c(n1)sc1c(N3CC4(C3)CC(F)(F)C4)ncnc12` is above or exactly 6.
Condition met
